target: FL-SMARCA2 (full-length human SMARCA2 isoform 1) (Homo sapiens); construct: FLAG tag (YKDDDDK) (C); made in house; host or cells: Sf21 insect cells (baculovirus, pFastBacI); experiment: SMARCA2 ATPase activity assay (ADP-Glo, chicken mononucleosome substrate); assay type: biochemical; details: Table 3c.1; ATPase assay, enzyme 5 nM, ATP 250 uM, chicken mononucleosome 10 nM, 30 min preincubation
Sequence (P51531 with tags, fused parts or gaps): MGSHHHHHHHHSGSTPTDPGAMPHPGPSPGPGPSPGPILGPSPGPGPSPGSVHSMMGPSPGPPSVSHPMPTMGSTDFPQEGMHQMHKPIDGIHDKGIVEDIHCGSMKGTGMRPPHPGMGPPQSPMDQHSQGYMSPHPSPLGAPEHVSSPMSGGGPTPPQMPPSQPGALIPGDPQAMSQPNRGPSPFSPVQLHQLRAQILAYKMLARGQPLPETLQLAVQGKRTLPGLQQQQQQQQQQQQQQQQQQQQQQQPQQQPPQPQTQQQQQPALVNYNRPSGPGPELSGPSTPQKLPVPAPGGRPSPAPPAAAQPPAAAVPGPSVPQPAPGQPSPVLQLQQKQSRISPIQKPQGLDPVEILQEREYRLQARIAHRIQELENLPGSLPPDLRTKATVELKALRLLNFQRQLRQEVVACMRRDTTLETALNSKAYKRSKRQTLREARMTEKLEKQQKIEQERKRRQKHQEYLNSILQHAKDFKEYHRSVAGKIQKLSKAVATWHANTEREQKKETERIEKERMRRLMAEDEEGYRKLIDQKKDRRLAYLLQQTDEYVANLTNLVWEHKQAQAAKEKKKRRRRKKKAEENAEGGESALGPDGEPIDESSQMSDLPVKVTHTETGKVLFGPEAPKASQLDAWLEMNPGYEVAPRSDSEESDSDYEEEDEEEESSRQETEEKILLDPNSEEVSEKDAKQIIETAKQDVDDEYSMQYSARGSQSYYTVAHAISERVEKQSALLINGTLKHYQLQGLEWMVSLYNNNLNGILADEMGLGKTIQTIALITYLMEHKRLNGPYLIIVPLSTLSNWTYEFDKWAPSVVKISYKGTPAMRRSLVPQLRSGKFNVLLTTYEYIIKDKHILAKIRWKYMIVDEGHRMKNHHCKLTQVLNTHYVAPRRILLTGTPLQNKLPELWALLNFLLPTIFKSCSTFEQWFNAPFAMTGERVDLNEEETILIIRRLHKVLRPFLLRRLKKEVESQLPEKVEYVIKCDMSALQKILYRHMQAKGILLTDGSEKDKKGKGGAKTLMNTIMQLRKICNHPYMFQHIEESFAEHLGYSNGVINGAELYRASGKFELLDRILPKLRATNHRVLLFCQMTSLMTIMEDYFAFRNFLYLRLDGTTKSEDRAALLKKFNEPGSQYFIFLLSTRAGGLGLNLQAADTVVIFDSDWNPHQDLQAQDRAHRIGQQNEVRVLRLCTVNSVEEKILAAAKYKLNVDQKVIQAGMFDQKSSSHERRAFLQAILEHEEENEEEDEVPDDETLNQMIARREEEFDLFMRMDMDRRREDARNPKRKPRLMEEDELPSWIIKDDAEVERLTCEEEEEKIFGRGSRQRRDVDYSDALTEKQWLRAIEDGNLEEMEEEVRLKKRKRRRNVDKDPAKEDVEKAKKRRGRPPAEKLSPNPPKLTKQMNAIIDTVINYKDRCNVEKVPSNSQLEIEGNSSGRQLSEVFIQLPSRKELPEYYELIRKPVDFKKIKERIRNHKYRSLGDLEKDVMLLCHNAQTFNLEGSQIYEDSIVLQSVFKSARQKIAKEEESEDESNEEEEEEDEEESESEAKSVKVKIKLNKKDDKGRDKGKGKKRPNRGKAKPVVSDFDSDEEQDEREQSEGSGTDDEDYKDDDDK
readout: IC50 (µM)

compound	target.or.system	IC50 / µM
O=C(Nc1cc(F)c(=O)n(CC(F)F)c1)c1cc(C#Cc2cn3ccccc3n2)c(Cl)s1	FL-SMARCA2 (full-length human SMARCA2 isoform 1) (Homo sapiens)	0.901
O=C(Nc1cc(F)c(=O)n(CC(F)F)c1)c1cc(C#Cc2c[nH]cn2)c(Cl)s1 [Compound 113c]	FL-SMARCA2 (full-length human SMARCA2 isoform 1) (Homo sapiens)	0.0345
O=C(Nc1cc(F)c(=O)n(CC(F)F)c1)c1cc(F)c(F)s1 [Compound 109c]	FL-SMARCA2 (full-length human SMARCA2 isoform 1) (Homo sapiens)	0.0625
CN(C)Cc1cccc(C#Cc2cc(C(=O)Nc3cc(F)c(=O)n(CC(F)F)c3)sc2Cl)c1 [Compound 128c]	FL-SMARCA2 (full-length human SMARCA2 isoform 1) (Homo sapiens)	0.211
NC(=O)c1ccc(C#Cc2cc(C(=O)Nc3cc(F)c(=O)n(CC(F)F)c3)sc2Cl)cc1 [Compound 68c]	FL-SMARCA2 (full-length human SMARCA2 isoform 1) (Homo sapiens)	0.0671
CN(C)Cc1cc(C#Cc2cc(C(=O)Nc3cc(F)c(=O)n(CC(F)F)c3)sc2Cl)n(C)n1 [Compound 149c]	FL-SMARCA2 (full-length human SMARCA2 isoform 1) (Homo sapiens)	8.03
O=C(Nc1cc(F)c(=O)n(CC(F)F)c1)c1nnc(Cl)o1	FL-SMARCA2 (full-length human SMARCA2 isoform 1) (Homo sapiens)	0.402
Cc1cnc(C#Cc2cc(C(=O)Nc3cc(F)c(=O)n(CC(F)F)c3)sc2Cl)s1 [Compound 70c]	FL-SMARCA2 (full-length human SMARCA2 isoform 1) (Homo sapiens)	0.26

P. CN1CCC(C#Cc2cc(C(=O)Nc3cc(F)c(=O)n(CC(F)F)c3)sc2Cl)CC1 [Compound 29c]
Q. O=C(Nc1cc(F)c(=O)n(CC(F)F)c1)c1cc(C#Cc2csc(C(F)(F)F)n2)c(Cl)s1 [Compound 126c]
Problem: Of the two listed items, P and Q , which carries the larger IC50 figure? State your choice using its label.
Solution: P

A. O=C(Nc1ccc(=O)n(CC(F)F)c1)c1cc(Cl)c(C(F)(F)F)s1 [Compound 72c]
B. O=C(Nc1cc(C#CC(F)(F)F)c(=O)n(CC(F)F)c1)c1cc(F)c(Cl)s1 [Compound 26c]
Problem: Lab log: flag the item ( A or B ) with the smaller IC50 figure. State your choice using its label.
Solution: A

P. CN1CCn2c(C#Cc3cc(C(=O)Nc4cc(F)c(=O)n(CC(F)F)c4)sc3Cl)cnc2C1 [Compound 66c]
Q. CN1CCn2cc(C#Cc3cc(C(=O)Nc4cc(F)c(=O)n(CC(F)F)c4)sc3Cl)nc2C1 [Compound 146c]
Problem: Of the two listed items, P and Q , which carries the larger IC50 figure? State your choice using its label.
Solution: Q
